Data credit: patent US20250120967A1

Test system: MDA-MB-453 cells
Experiment: In vitro cytotoxicity assay (MTT, 72 h)
Format: cell-based
Settings: Homo sapiens, growth inhibition
Method: Six different cell lines were used, including human breast cancer cell lines MDA-MB-231 (6×10^3) and MDA-MB-453 (2.4×10^4), human colorectal cell line SW48 (2.4×10^4), human breast epithelial cell line M10 (6×10^3), human cancer cell line A549 (1.4×10^3), and murine colorectal carcinoma tumors CT26 (6×10^3), which were seeded in a 96-well plate. […] After 72 h, MTT assay (Cayman™) was used to determine the cellular viability.
Recorded metric: IC50 (µM)
Answers are plain numbers, in µM.

Solved entries (count: 2):
# Compound, Number
rows = [
    ("COc1cc2nccc(Oc3ccc(NC(=O)C4(NC(=O)c5ccc(F)cc5)CC4)cc3F)c2cc1Oc1ccc(N)cc1C [Cbo-09]", 9.28),
    ("COc1cc2nccc(Oc3ccc(NC(=O)C4(NC(=O)c5ccc(F)cc5)CC4)cc3F)c2cc1OC [Cbo-02]", 5.31),
]

Entry COc1cc2nccc(Oc3ccc(C(=O)NC4(C(=O)Nc5ccc(F)cc5)CC4)cc3F)c2cc1OC [Cbo-03] , tested on MDA-MB-453 cells, has a reported IC50 of 17.9

---

Hi there, I'd appreciate the recorded inhibition at 1 µM for every entry that follows.
Target: AKT1 (PKB alpha) (Homo sapiens, UniProt P31749)
Sequence (P31749 whole entry): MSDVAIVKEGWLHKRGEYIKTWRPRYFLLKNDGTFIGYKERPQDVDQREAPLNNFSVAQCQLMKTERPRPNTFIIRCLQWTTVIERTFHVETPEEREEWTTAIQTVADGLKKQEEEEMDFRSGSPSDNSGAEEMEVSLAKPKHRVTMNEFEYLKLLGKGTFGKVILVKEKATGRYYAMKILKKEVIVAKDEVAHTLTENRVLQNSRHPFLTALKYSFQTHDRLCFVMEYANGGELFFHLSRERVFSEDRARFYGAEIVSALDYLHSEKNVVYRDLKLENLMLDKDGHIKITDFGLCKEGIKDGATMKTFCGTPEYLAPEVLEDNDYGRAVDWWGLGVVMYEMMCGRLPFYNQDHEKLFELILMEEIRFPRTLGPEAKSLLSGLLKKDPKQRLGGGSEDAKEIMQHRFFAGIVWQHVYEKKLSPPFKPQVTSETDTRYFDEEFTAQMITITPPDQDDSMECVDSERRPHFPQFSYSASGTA
Assay: Tyrosine kinase inhibition assay
Assay type: biochemical
Conditions: single concentration 1.0 μM, read-out: percent inhibition
One number for each entry, in %.

Solved entries (count: 4):
# Compound, Experimental system, Number
records = [
    ("COc1cc2nccc(Oc3ccc(NC(=O)C4(C(=O)Nc5ccc(F)cc5)CC4)cc3)c2cc1OC [Cabozantinib, reference compound]", "AKT1 (PKB alpha) (Homo sapiens, UniProt P31749)", 3),
    ("COc1cc2nccc(Oc3ccc(NC(=O)C4(NC(=O)c5ccc(F)cc5)CC4)cc3F)c2cc1Oc1c(F)cc(N)cc1F", "AKT1 (PKB alpha) (Homo sapiens, UniProt P31749)", 2),
    ("COc1cc2nccc(Oc3ccc(NC(=O)C4(NC(=O)c5ccc(F)cc5)CC4)cc3F)c2cc1Oc1ccc(N)cc1F", "AKT1 (PKB alpha) (Homo sapiens, UniProt P31749)", 0),
    ("COc1cc2nccc(Oc3ccc(NC(=O)C4(C(=O)Nc5ccc(F)cc5)CC4)cc3F)c2cc1Oc1ccc(N)cc1F", "AKT1 (PKB alpha) (Homo sapiens, UniProt P31749)", 4),
]

Okay, next one:
The value of inhibition at 1 µM measured for the compound `COc1cc2nccc(Oc3ccc(NC(=O)C4(NC(=O)c5ccc(F)cc5)CC4)cc3F)c2cc1OC` turned out to be 2

---

Biological target: PIK3C3 (hVPS34) (Homo sapiens)
Sequence (Q8NEB9 whole entry): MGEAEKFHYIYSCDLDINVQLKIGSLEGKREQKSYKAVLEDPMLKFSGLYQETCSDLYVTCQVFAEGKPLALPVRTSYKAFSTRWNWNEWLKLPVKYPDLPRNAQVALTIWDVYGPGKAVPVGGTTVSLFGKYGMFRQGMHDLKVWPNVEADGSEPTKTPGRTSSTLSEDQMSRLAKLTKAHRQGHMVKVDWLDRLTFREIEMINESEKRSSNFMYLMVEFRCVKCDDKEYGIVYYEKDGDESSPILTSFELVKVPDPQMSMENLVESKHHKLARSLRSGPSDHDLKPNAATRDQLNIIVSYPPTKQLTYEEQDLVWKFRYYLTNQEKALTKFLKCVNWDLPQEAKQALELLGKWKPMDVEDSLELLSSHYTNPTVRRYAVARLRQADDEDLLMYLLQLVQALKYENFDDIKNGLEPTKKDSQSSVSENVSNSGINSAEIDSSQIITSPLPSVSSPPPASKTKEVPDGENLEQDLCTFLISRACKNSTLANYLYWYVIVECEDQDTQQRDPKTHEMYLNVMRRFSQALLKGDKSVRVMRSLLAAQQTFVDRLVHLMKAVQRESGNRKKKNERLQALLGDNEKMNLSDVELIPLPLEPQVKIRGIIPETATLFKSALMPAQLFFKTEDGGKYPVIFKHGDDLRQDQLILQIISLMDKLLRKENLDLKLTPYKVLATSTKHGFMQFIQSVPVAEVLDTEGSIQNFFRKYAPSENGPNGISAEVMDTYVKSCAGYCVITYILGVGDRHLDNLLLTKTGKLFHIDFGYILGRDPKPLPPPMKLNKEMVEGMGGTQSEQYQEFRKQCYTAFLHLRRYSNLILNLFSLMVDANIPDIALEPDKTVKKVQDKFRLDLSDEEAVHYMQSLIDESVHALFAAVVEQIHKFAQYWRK
Experiment: Tyrosine kinase inhibition assay
Format: biochemical
Conditions: single concentration 1.0 μM, read-out: percent inhibition
Recorded metric: inhibition at 1 µM (%)
Give bare numbers, in %.

Solved entries (count: 2):
# Compound, Recorded metric, Number
rows = [
    ("COc1cc2nccc(Oc3ccc(NC(=O)C4(NC(=O)c5ccc(F)cc5)CC4)cc3F)c2cc1Oc1c(F)cc(N)cc1F [Cbo-14]", "inhibition at 1 µM", 6),
    ("COc1cc2nccc(Oc3ccc(NC(=O)C4(C(=O)Nc5ccc(F)cc5)CC4)cc3)c2cc1OC [Cabozantinib, reference compound]", "inhibition at 1 µM", 0),
]

Please give inhibition at 1 µM for each item listed below.
1. COc1cc2nccc(Oc3ccc(NC(=O)C4(C(=O)Nc5ccc(F)cc5)CC4)cc3F)c2cc1Oc1ccc(N)cc1F [Cbo-23]
2. COc1cc2nccc(Oc3ccc(NC(=O)C4(NC(=O)c5ccc(F)cc5)CC4)cc3F)c2cc1Oc1ccc(N)cc1F [Cbo-10]
3. COc1cc2nccc(Oc3ccc(NC(=O)C4(NC(=O)c5ccc(F)cc5)CC4)cc3F)c2cc1OC [Cbo-02]

1. -4
2. -5
3. 1
